assay-explanation: Biodisposition of JV-DE1 and JV-MD2 delivered via NIODP (periorbital skin) in non-human primates
Type: in vivo, cynomolgus monkeys
condition-description: cynomolgus, cynomolgus monkey, upper eyelid (periorbital skin) of the dosed left eye (OS), topical; JV-MD2; monkey; NIODP OS; 6768 μg/eye; 3 h; endogenous BLQ; read-out: Drug in OS Tissues, Eyelid/periorbital skin
quantity: concentration at 3 h (ng/g)

# compound, quantity, reported-value
records = [
    ("CC/C=C\\C/C=C\\C/C=C\\C/C=C\\C/C=C\\C/C=C\\CCC(=O)O [JV-MD2, cis-4,7,10,13,16,19-docosahexaenoic acid]", "concentration at 3 h", 420000),
]
